Biological target: T1, human monomeric MuSK FLAG streptavidin (in house produced, batch 27-6-2019) (human, UniProt O15146 24-495)
T1 construct: also called full length MuSK; not shown: FLAG and streptavidin tags
T1 sequence: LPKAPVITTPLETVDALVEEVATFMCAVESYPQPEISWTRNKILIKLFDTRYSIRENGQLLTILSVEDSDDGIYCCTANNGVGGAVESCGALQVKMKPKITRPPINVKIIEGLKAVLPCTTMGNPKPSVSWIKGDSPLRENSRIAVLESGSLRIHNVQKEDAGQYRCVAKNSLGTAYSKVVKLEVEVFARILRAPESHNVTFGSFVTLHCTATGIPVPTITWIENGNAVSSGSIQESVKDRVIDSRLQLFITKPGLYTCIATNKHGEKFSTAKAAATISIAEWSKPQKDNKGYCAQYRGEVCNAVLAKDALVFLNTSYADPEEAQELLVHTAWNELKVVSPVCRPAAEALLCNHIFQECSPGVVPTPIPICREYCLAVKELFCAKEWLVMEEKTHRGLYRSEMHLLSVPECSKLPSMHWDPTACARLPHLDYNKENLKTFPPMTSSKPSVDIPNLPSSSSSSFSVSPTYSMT
Assay: epitope binning ELISA (coated anti-MuSK Fab, MuSK, IgG, anti-Fc HRP); competitor: 3B5wt
reported.metric: OD 450 nm (OD)
Provide only the numeric value, understood in OD.

binder	readout.value
3D10a (antibody, human IgG1, kappa, L234A L235A, V domains shown) VH: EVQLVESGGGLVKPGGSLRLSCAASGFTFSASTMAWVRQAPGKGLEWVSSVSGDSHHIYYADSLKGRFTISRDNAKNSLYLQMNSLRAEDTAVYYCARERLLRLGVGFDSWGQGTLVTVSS VL: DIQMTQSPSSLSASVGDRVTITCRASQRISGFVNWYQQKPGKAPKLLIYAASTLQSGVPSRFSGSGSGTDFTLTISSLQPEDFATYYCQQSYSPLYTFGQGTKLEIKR	2.12
3B5 (antibody, V domains shown, also called 3B5wt) VH: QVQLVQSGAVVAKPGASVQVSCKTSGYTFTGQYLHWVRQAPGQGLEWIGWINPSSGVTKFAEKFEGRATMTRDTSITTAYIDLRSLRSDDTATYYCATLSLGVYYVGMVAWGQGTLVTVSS VL: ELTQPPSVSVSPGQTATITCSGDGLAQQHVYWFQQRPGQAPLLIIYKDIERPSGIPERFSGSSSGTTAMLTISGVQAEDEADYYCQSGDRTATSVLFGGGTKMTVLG	0.048
3D9b (antibody, human IgG1, kappa, L234A L235A, V domains shown) VH: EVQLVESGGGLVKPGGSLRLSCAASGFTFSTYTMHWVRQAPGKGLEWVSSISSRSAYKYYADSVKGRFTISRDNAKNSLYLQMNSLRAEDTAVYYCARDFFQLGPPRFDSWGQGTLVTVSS VL: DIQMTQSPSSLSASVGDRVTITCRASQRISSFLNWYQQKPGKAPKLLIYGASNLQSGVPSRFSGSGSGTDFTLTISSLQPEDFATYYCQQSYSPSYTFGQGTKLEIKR	2.66

Query :: Supply OD 450 nm value. Item: 4D3 (antibody, human IgG1, kappa, L234A L235A, V domains shown) VH: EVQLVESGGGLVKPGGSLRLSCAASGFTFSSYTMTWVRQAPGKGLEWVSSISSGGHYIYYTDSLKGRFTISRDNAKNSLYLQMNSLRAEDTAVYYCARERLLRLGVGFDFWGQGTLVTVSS VL: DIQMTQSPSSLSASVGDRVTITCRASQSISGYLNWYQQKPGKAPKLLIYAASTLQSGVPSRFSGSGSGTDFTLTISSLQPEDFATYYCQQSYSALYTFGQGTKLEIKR
Result :: 0.882

Data credit: patent US20230110188A1
